Below is a list of entries, each paired with its recorded inhibition value.
- MEASURED_ON: Rhodesain (Trypanosoma brucei rhodesiense)
- TEST_NAME: Inhibition of Trypanosoma brucei rhodesiense rhodesain after 12 hrs by fluorescence spectroscopy-based on-bead assay
- Parameters: concentration or dose not given beside the values
- DETAILS: concentration not given here
Peptide text beside a SMILES is read from it.
MEASUREMENT_KIND: inhibition (%)

>>> recorded_measurement("CC(C)[C@H](NC(=O)[C@H](C)NC(=O)[C@@H](NC(=O)[C@H](CCC(N)=O)NC(=O)/C=C/C(=O)N[C@@H](C)C(=O)NCC(=O)N[C@@H](Cc1ccccc1)C(=O)O)c1ccccc1)C(N)=O (HELM PEPTIDE1{[C[C@H](NC(=O)/C=C/C(=O)[*:2])C(=O)NCC(=O)N[C@@H](Cc1ccccc1)C(=O)O].Q.[Phg].A.V.[am]}$$$$V2.0)")
12
>>> recorded_measurement("CC(C)[C@H](NC(=O)[C@H](C)NC(=O)[C@@H](NC(=O)[C@H](CC(N)=O)NC(=O)/C=C/C(=O)N[C@@H](C)C(=O)NCC(=O)N[C@@H](Cc1ccccc1)C(=O)O)C1CCCCC1)C(N)=O (HELM PEPTIDE1{[C[C@H](NC(=O)/C=C/C(=O)[*:2])C(=O)NCC(=O)N[C@@H](Cc1ccccc1)C(=O)O].N.[O=C([C@@H](N[*:1])C1CCCCC1)[*:2]].A.V.[am]}$$$$V2.0)")
36
>>> recorded_measurement("CC(C)[C@H](NC(=O)[C@@H](NC(=O)[C@H](Cc1ccccc1)NC(=O)[C@H](CCC(N)=O)NC(=O)/C=C/C(=O)N[C@@H](C)C(=O)NCC(=O)N[C@@H](Cc1ccccc1)C(=O)O)C(C)C)C(N)=O (HELM PEPTIDE1{[C[C@H](NC(=O)/C=C/C(=O)[*:2])C(=O)NCC(=O)N[C@@H](Cc1ccccc1)C(=O)O].Q.F.V.V.[am]}$$$$V2.0)")
45
>>> recorded_measurement("CC(C)C[C@H](NC(=O)[C@H](Cc1ccccc1)NC(=O)[C@H](CCC(N)=O)NC(=O)/C=C/C(=O)N[C@@H](C)C(=O)NCC(=O)N[C@@H](Cc1ccccc1)C(=O)O)C(=O)N[C@H](C(N)=O)C(C)C (HELM PEPTIDE1{[C[C@H](NC(=O)/C=C/C(=O)[*:2])C(=O)NCC(=O)N[C@@H](Cc1ccccc1)C(=O)O].Q.F.L.V.[am]}$$$$V2.0)")
60
>>> recorded_measurement("CC(C)[C@H](NC(=O)[C@H](C)NC(=O)[C@@H](NC(=O)[C@H](Cc1ccccc1)NC(=O)/C=C/C(=O)N[C@@H](C)C(=O)NCC(=O)N[C@@H](Cc1ccccc1)C(=O)O)C1CCCCC1)C(N)=O (HELM PEPTIDE1{[C[C@H](NC(=O)/C=C/C(=O)[*:2])C(=O)NCC(=O)N[C@@H](Cc1ccccc1)C(=O)O].F.[O=C([C@@H](N[*:1])C1CCCCC1)[*:2]].A.V.[am]}$$$$V2.0)")
21
>>> recorded_measurement("CC(C)C[C@H](NC(=O)[C@@H](NC(=O)[C@H](CCC(N)=O)NC(=O)/C=C/C(=O)NCC(=O)NCC(=O)N[C@@H](Cc1ccccc1)C(=O)O)C1CCCCC1)C(=O)N[C@H](C(N)=O)C(C)C (HELM PEPTIDE1{[O=C(/C=C/C(=O)[*:2])NCC(=O)NCC(=O)N[C@@H](Cc1ccccc1)C(=O)O].Q.[O=C([C@@H](N[*:1])C1CCCCC1)[*:2]].L.V.[am]}$$$$V2.0)")
71
>>> recorded_measurement("CC(C)C[C@H](NC(=O)[C@H](CCC(N)=O)NC(=O)/C=C/C(=O)N[C@@H](C)C(=O)NCC(=O)N[C@@H](Cc1ccccc1)C(=O)O)C(=O)N[C@H](C(=O)N[C@H](C(N)=O)C(C)C)C(C)C (HELM PEPTIDE1{[C[C@H](NC(=O)/C=C/C(=O)[*:2])C(=O)NCC(=O)N[C@@H](Cc1ccccc1)C(=O)O].Q.L.V.V.[am]}$$$$V2.0)")
64
>>> recorded_measurement("CC(C)C[C@H](NC(=O)[C@H](CCC(N)=O)NC(=O)/C=C/C(=O)N[C@@H](C)C(=O)NCC(=O)N[C@@H](Cc1ccccc1)C(=O)O)C(=O)N[C@@H](C)C(=O)N[C@H](C(N)=O)C(C)C (HELM PEPTIDE1{[C[C@H](NC(=O)/C=C/C(=O)[*:2])C(=O)NCC(=O)N[C@@H](Cc1ccccc1)C(=O)O].Q.L.A.V.[am]}$$$$V2.0)")
7
>>> recorded_measurement("CC[C@H](C)[C@H](NC(=O)[C@H](CNC(C)=O)NC(=O)/C=C/C(=O)N[C@@H](C)C(=O)NCC(=O)N[C@@H](Cc1ccccc1)C(=O)O)C(=O)N[C@@H](CC(C)C)C(=O)N[C@H](C(N)=O)C(C)C (HELM PEPTIDE1{[C[C@H](NC(=O)/C=C/C(=O)[*:2])C(=O)NCC(=O)N[C@@H](Cc1ccccc1)C(=O)O].[O=C([C@H](CN[*:3])N[*:1])[*:2]].I.L.V.[am]}|PEPTIDE2{[ac]}$PEPTIDE1,PEPTIDE2,2:R3-1:R2$$$V2.0)")
61
>>> recorded_measurement("CC(C)[C@H](NC(=O)[C@H](C)NC(=O)[C@@H](NC(=O)[C@H](C)NC(=O)/C=C/C(=O)N[C@@H](C)C(=O)NCC(=O)N[C@@H](Cc1ccccc1)C(=O)O)c1ccccc1)C(N)=O (HELM PEPTIDE1{[C[C@H](NC(=O)/C=C/C(=O)[*:2])C(=O)NCC(=O)N[C@@H](Cc1ccccc1)C(=O)O].A.[Phg].A.V.[am]}$$$$V2.0)")
25
>>> recorded_measurement("CC[C@H](C)[C@H](NC(=O)[C@H](Cc1ccccc1)NC(=O)/C=C/C(=O)NCC(=O)NCC(=O)N[C@@H](Cc1ccccc1)C(=O)O)C(=O)N[C@@H](CC(C)C)C(=O)N[C@H](C(N)=O)C(C)C (HELM PEPTIDE1{[O=C(/C=C/C(=O)[*:2])NCC(=O)NCC(=O)N[C@@H](Cc1ccccc1)C(=O)O].F.I.L.V.[am]}$$$$V2.0)")
73

* * *

- TEST_NAME: Inhibition of Plasmodium falciparum falcipain-2 after 12 hrs by fluorescence spectroscopy-based on-bead assay
- Parameters: concentration or dose not given beside the values
- DETAILS: concentration not given here
Square brackets hold non-standard residues; d marks the D form. Peptide text beside a SMILES is read from it. * marks the point of attachment. Fumaroyl(GlyGlyPheOH) = O=C(/C=C/C(=O)*)NCC(=O)NCC(=O)N[C@@H](Cc1ccccc1)C(=O)O; Chg = N[C@H](C(=O)O)C1CCCCC1; Dap = NC[C@H](N)C(=O)O
Entries and their measured inhibition follow.
MEASUREMENT_KIND: inhibition (%)

>>> recorded_measurement("CC(C)[C@H](NC(=O)[C@H](C)NC(=O)[C@H](Cc1ccccc1)NC(=O)[C@H](Cc1ccccc1)NC(=O)/C=C/C(=O)NCC(=O)NCC(=O)N[C@@H](Cc1ccccc1)C(=O)O)C(N)=O (HELM PEPTIDE1{[O=C(/C=C/C(=O)[*:2])NCC(=O)NCC(=O)N[C@@H](Cc1ccccc1)C(=O)O].F.F.A.V.[am]}$$$$V2.0)")
43
>>> recorded_measurement("CC(C)[C@H](NC(=O)[C@@H](NC(=O)[C@@H](NC(=O)[C@H](CC(N)=O)NC(=O)/C=C/C(=O)NCC(=O)NCC(=O)N[C@@H](Cc1ccccc1)C(=O)O)c1ccccc1)C(C)C)C(N)=O (HELM PEPTIDE1{[O=C(/C=C/C(=O)[*:2])NCC(=O)NCC(=O)N[C@@H](Cc1ccccc1)C(=O)O].N.[Phg].V.V.[am]}$$$$V2.0)")
50
>>> recorded_measurement("CC(=O)NC[C@H](NC(=O)/C=C/C(=O)NCC(=O)NCC(=O)N[C@@H](Cc1ccccc1)C(=O)O)C(=O)N[C@H](C(=O)N[C@@H](CC(C)C)C(=O)N[C@H](C(N)=O)C(C)C)C1CCCCC1 ({Fumaroyl(GlyGlyPheOH)}-[Dap](Ac)[Chg]LV-NH2)")
26

* * *

Let's look at some compounds and their measured inhibition.
- MEASURED_ON: Rhodesain (Trypanosoma brucei rhodesiense)
- TEST_NAME: Inhibition of Trypanosoma brucei rhodesiense rhodesain after 12 hrs by fluorescence spectroscopy-based on-bead assay
- Design: concentration or dose not given beside the values
- DETAILS: concentration not given here
Peptide text beside a SMILES is read from it.
MEASUREMENT_KIND: inhibition

>>> recorded_measurement("CC[C@H](C)[C@H](NC(=O)[C@H](CCC(N)=O)NC(=O)/C=C/C(=O)N[C@@H](C)C(=O)NCC(=O)N[C@@H](Cc1ccccc1)C(=O)O)C(=O)N[C@@H](C)C(=O)N[C@H](C(N)=O)C(C)C (HELM PEPTIDE1{[C[C@H](NC(=O)/C=C/C(=O)[*:2])C(=O)NCC(=O)N[C@@H](Cc1ccccc1)C(=O)O].Q.I.A.V.[am]}$$$$V2.0)")
"29%"
>>> recorded_measurement("CC(C)[C@H](NC(=O)[C@@H](NC(=O)[C@H](Cc1ccccc1)NC(=O)[C@H](Cc1ccccc1)NC(=O)/C=C/C(=O)NCC(=O)NCC(=O)N[C@@H](Cc1ccccc1)C(=O)O)C(C)C)C(N)=O (HELM PEPTIDE1{[O=C(/C=C/C(=O)[*:2])NCC(=O)NCC(=O)N[C@@H](Cc1ccccc1)C(=O)O].F.F.V.V.[am]}$$$$V2.0)")
"51%"
>>> recorded_measurement("CC(C)C[C@H](NC(=O)[C@@H](NC(=O)[C@H](Cc1ccccc1)NC(=O)/C=C/C(=O)NCC(=O)NCC(=O)N[C@@H](Cc1ccccc1)C(=O)O)c1ccccc1)C(=O)N[C@H](C(N)=O)C(C)C (HELM PEPTIDE1{[O=C(/C=C/C(=O)[*:2])NCC(=O)NCC(=O)N[C@@H](Cc1ccccc1)C(=O)O].F.[Phg].L.V.[am]}$$$$V2.0)")
"71%"
>>> recorded_measurement("CC[C@H](C)[C@H](NC(=O)[C@H](C)NC(=O)/C=C/C(=O)NCC(=O)NCC(=O)N[C@@H](Cc1ccccc1)C(=O)O)C(=O)N[C@@H](C)C(=O)N[C@H](C(N)=O)C(C)C (HELM PEPTIDE1{[O=C(/C=C/C(=O)[*:2])NCC(=O)NCC(=O)N[C@@H](Cc1ccccc1)C(=O)O].A.I.A.V.[am]}$$$$V2.0)")
"31%"
>>> recorded_measurement("CC(C)C[C@H](NC(=O)[C@@H](NC(=O)[C@H](CC(N)=O)NC(=O)/C=C/C(=O)NCC(=O)NCC(=O)N[C@@H](Cc1ccccc1)C(=O)O)c1ccccc1)C(=O)N[C@H](C(N)=O)C(C)C (HELM PEPTIDE1{[O=C(/C=C/C(=O)[*:2])NCC(=O)NCC(=O)N[C@@H](Cc1ccccc1)C(=O)O].N.[Phg].L.V.[am]}$$$$V2.0)")
"50%"
>>> recorded_measurement("CC(=O)NC[C@H](NC(=O)/C=C/C(=O)N[C@@H](C)C(=O)NCC(=O)N[C@@H](Cc1ccccc1)C(=O)O)C(=O)N[C@H](C(=O)N[C@H](C(=O)N[C@H](C(N)=O)C(C)C)C(C)C)c1ccccc1 (HELM PEPTIDE1{[C[C@H](NC(=O)/C=C/C(=O)[*:2])C(=O)NCC(=O)N[C@@H](Cc1ccccc1)C(=O)O].[O=C([C@H](CN[*:3])N[*:1])[*:2]].[Phg].V.V.[am]}|PEPTIDE2{[ac]}$PEPTIDE1,PEPTIDE2,2:R3-1:R2$$$V2.0)")
"36%"
